Biological target: GlcNAc(b1-3)Gal(b1-4)GlcNAc(b1-6)[Gal(b1-3)]GalNAc
Experiment: glycan array binding signal (z-score within array); higher = stronger binding
Conditions: glycan notation: IUPAC condensed, linker removed
About 410 targets per protein were measured; listed, in parts, are those with the strongest signals and a random draw of the rest.
reported metric: glycan array binding signal (z-score)
Response field accepts a number only; no unit should be typed.

binder: Gal-9-hFc (Mus musculus), O08573-2 (protein) MALFSAQSPYINPIIPFTGPIQGGLQEGLQVTLQGTTKSFAQRFVVNFQNSFNGNDIAFHFNPRFEEGGYVVCNTKQNGQWGPEERKMQMPFQKGMPFELCFLVQRSEFKVMVNKKFFVQYQHRVPYHLVDTIAVSGCLKLSFITFQTQNFRPAHQAPMAQTTIHMVHSTPGQMFSTPGIPPVVYPTPAYTIPFYTPIPNGLYPSKSIMISGNVLPDATRFHINLRCGGDIAFHLNPRFNENAVVRNTQINNSWGQEERSLLGRMPFSRGQSFSVWIICEGHCFKVAVNGQHMCEYYHRLKNLQDINTLEVAGDIQLTHVQT
observed: -0.325

With those in mind, consider the next binder.
Consider EULS2 M4 (Oryza sativa) (protein) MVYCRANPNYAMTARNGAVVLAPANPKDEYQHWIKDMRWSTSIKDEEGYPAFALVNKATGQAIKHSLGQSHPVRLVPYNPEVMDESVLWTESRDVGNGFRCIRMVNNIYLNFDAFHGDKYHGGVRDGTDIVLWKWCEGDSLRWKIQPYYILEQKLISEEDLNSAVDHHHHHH . Its measured glycan array binding signal (z-score) is -0.431
